These entries and their values trace back to patent EP0657176B1.

assay_protocol: Hemolytic effect on rabbit erythrocytes (Experiment 1, Fig. 1)
measurement_parameters: rabbit, erythrocytes, phosphate buffer, pH 7.4
observed_property: HC50 (mM)

OC[C@H]1O[C@@H]2O[C@H]3[C@H](O)[C@@H](O)[C@@H](O[C@H]4[C@H](O)[C@@H](O)[C@@H](O[C@H]5[C@H](O)[C@@H](O)[C@@H](O[C@H]6[C@H](O)[C@@H](O)[C@@H](O[C@H]7[C@H](O)[C@@H](O)[C@@H](O[C@H]8[C@H](O)[C@@H](O)[C@@H](O[C@H]1[C@H](O)[C@H]2O)O[C@@H]8CO)O[C@@H]7CO)O[C@@H]6CO)O[C@@H]5CO)O[C@@H]4CO)O[C@@H]3CO ... 4

---

assay_protocol: Water-solubility of testosterone alone or combined with α-CyD-G2-COONa or α-CyD (Example 14)
Assay type: physicochemical
measurement_parameters: testosterone about 4 mg, α-CyD-G2-COONa or α-CyD 75 mg in water 5 ml, shaken at 25°C for 8 hours; ultraviolet spectrophotometer; read-out: solubilities of testosterone
observed_property: solubility at 8 h (µg/mL)

C[C@]12CC[C@H]3[C@@H](CCC4=CC(=O)CC[C@@]43C)[C@@H]1CC[C@@H]2O [Testosterone alone, testosterone] ... 29

---

assay_protocol: Water-solubility of phenytoin alone or combined with β-CyD-G2-COONa or β-CyD (Example 9)
observed_property: solubility at 8 h (µg/mL)

O=C1NC(=O)C(c2ccccc2)(c2ccccc2)N1 [Phenytoin alone, phenytoin] ... 27

---

assay_protocol: Water-solubility of the cephalosporin antibiotic alone or combined with β-CyD-G2-COONa or β-CyD (Example 3, HPLC)
Assay type: physicochemical
measurement_parameters: cephalosporin antibiotic (free form) in water, with β-CyD-G2-COONa or β-CyD 1:2 (mol ratio), lyophilized powder 100 mg + water 1 ml, alone: shaken at 25 °C for 8 hours, read-out: solubilities of the antibiotic
observed_property: solubility (µg/mL)

COC1C(OC(=O)NC(=O)CCl)CCC2(CO2)C1C1(C)OC1CC=C(C)C (stereo not shown) [Antineoplastic agent alone] ... 2500

---

assay_protocol: Water-solubility of the antineoplastic agent alone or combined with β-CyD-G2-COONa or β-CyD (Example 1, HPLC)
Assay type: physicochemical
measurement_parameters: 6-O-(N-chloroacetylcarbamoyl)fumagillol in water, with β-CyD-G2-COONa or β-CyD 1:2 (mol ratio), lyophilized powder 100 mg + water 1 ml, alone: shaken at 25 °C for 4 hours, 0.22 µm filter, read-out: solubilities of the antineoplastic agent
observed_property: solubility (µg/mL)

COC1C(OC(=O)NC(=O)CCl)CCC2(CO2)C1C1(C)OC1CC=C(C)C (stereo not shown) [Antineoplastic agent alone] ... 1800

---

assay_protocol: Water-solubility of acetohexamide alone or combined with β-CyD-G2-COONa or β-CyD (Example 13)
Type: physicochemical
measurement_parameters: with β-CyD-G2-COONa or β-CyD 1:1 (molar ratio), as Example 12, powder 100 mg + water 1 ml; alone: 25 °C, 6 hours; ultraviolet spectrophotometer; read-out: solubilities of acetohexamide
observed_property: solubility (µg/mL)

CC(=O)c1ccc(S(=O)(=O)NC(=O)NC2CCCCC2)cc1 [Acetohexamide alone, acetohexamide] ... 28.1

---

assay_protocol: Water-solubility of testosterone alone or combined with β-CyD-CH2CH(OH)-COONa or β-CyD (Example 15)
Type: physicochemical
measurement_parameters: testosterone about 4 mg, β-CyD-CH2CH(OH)-COONa or β-CyD 75 mg in water 5 ml, shaken at 25°C for 8 hours; ultraviolet spectrophotometer; read-out: solubilities of testosterone
observed_property: solubility at 8 h (µg/mL)

C[C@]12CC[C@H]3[C@@H](CCC4=CC(=O)CC[C@@]43C)[C@@H]1CC[C@@H]2O ... 29

---

assay_protocol: Water-solubility of the antineoplastic agent alone or combined with α-CyD-G2-COONa or α-CyD (Example 2, HPLC)
Assay type: physicochemical
measurement_parameters: 6-O-(N-chloroacetylcarbamoyl)fumagillol in water, with α-CyD-G2-COONa or α-CyD 1:2 (mol ratio), lyophilized powder 100 mg + water 1 ml, alone: shaken at 25 °C for 4 hours, 0.22 µm filter, read-out: solubilities of the antineoplastic agent
observed_property: solubility (µg/mL)

COC1C(OC(=O)NC(=O)CCl)CCC2(CO2)C1C1(C)OC1CC=C(C)C (stereo not shown) [Antineoplastic agent alone] ... 1800

---

assay_protocol: Water-solubility of the antifungal agent alone or combined with β-CyD-G2-COONa or β-CyD (Example 4)
Type: physicochemical
measurement_parameters: triazolone antifungal agent in water; with β-CyD-G2-COONa or β-CyD 1:2 (molar ratio), lyophilized powder; as Example 1; read-out: solubilities of the antifungal agent
observed_property: solubility (µg/mL)

C[C@@H](n1ncn(-c2ccc(OCC(F)(F)C(F)F)cc2)c1=O)[C@](O)(Cn1cncn1)c1ccc(F)cc1F [Antifungal agent alone] ... 5

---

assay_protocol: Water-solubility of testosterone alone or combined with β-CyD-G2-COONa or β-CyD (Example 8)
observed_property: solubility at 8 h

C[C@]12CC[C@H]3[C@@H](CCC4=CC(=O)CC[C@@]43C)[C@@H]1CC[C@@H]2O ... 29 µg/mL
